# Experimental system: human c-Kit (SPR) (human, UniProt P10721 26-520, limits assumed)
# Sequence (P10721 26-520 limits assumed): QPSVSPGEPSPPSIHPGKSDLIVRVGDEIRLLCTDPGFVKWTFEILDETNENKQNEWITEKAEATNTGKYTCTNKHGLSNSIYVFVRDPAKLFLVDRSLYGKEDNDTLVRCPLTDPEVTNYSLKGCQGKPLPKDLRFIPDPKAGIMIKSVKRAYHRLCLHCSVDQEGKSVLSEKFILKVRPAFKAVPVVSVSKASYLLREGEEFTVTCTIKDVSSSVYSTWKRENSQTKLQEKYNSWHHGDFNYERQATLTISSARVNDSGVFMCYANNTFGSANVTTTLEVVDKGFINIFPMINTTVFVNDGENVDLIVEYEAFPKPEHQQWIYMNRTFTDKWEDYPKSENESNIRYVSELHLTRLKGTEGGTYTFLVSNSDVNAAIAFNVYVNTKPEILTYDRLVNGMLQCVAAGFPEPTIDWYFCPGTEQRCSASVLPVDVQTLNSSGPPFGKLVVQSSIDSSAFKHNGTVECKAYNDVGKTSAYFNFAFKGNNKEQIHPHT
# Procedure summary: SPR, single-cycle kinetics, Human C-kit
Parameter measured: kon (M⁻¹ s⁻¹)
Give a bare numeral; the unit M⁻¹ s⁻¹ is implied.

Q: Given the binder MH1_C/F6.12_D bispecific (pI-engineered) (bispecific antibody, V domains shown, Knob-in-hole IgG1null bispecific with human Ckappa) VH 1: QVQLVQSGAEVKEPGASVKVSCKASGYTFTDYYMNWVRQAPGQGLEWMGRIYPGSGNTYYAQNFQGRVTMTRDTSTSTVYMELSSLRSEDTAVYYCARGVYYYDYWGQGTLVTVSS VH 2: QVQLVQSGAEVKKPGESLKISCKGSGYRFASNWIGWVRQMPGKGLEWMGEIYPGDSNTRYSPSFQGQVTISADKSISTAYLQWSRLKASDTAMYYCARKDYYYGIMDVWGQGTTVTVSS VL: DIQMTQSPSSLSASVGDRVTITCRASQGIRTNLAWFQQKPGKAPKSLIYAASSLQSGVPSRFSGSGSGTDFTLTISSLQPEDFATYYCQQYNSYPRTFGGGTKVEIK , what is its reported kon?
Ans: 214000
